Source: ChEMBL document CHEMBL3507680

A collection of molecules and their measured cytotoxicity at 70.5 h
PROTOCOL DETAILS: Human HepG2 cell viability assay in 384 well format
Format: toxicity, cell-based
Design: dose 125 nL, time 70.5 hour; concentration not given beside the values
RUN CONDITIONS: HepG2 cells, read-out: Inhibition

- MOLECULE: "O=C1N(Cc2ccccc2)C[C@H]2CN(Cc3ccccc3Cl)CCN12"
  UNIT NAME: "%"
  cytotoxicity at 70.5 h: -1.14
- MOLECULE: "CSc1ccc(S(=O)(=O)N2CCCCC2CCNC(C)=O)cc1 (stereo unspecified)"
  UNIT NAME: "%"
  cytotoxicity at 70.5 h: -9.19
- MOLECULE: "Cc1cnn(CCNCC(=O)NC(c2ccccc2)c2ccccc2)c1"
  UNIT NAME: "%"
  cytotoxicity at 70.5 h: -16
- MOLECULE: "Cc1nn(C)c(C)c1CCC(=O)NCc1cccnc1OC1CCCC1"
  UNIT NAME: "%"
  cytotoxicity at 70.5 h: -3.92
- MOLECULE: "O[C@@H]1C[C@@H](c2nc(-c3ccc(OC(F)(F)F)cc3)no2)N(CC2CC2)C1"
  UNIT NAME: "%"
  cytotoxicity at 70.5 h: -4.09
- MOLECULE: "CC(=O)N1CCCC2(CCN(c3nncs3)C2)C1 (stereo unspecified)"
  UNIT NAME: "%"
  cytotoxicity at 70.5 h: -4.07

----------
PROTOCOL DETAILS: Human HepG2 cell viability assay in 384 well format
Format: toxicity, cell-based
Design: dose 125 nL, time 70.5 hour; concentration not given beside the values
RUN CONDITIONS: HepG2 cells, read-out: Inhibition

- MOLECULE: "CN1CCOC(C(=O)N2CCC3(CCCCC3)C2)C1 (configuration not stated)"
  cytotoxicity at 70.5 h, %: -5.38
- MOLECULE: "O=C(C1CCOCC1)N1CCO[C@H]2[C@@H](OCC3CC3)CC[C@@H]21"
  cytotoxicity at 70.5 h, %: -6.56
- MOLECULE: "CC1CCCCN1C1CN(C(=O)c2sccc2S(N)(=O)=O)C1 (configuration not stated)"
  cytotoxicity at 70.5 h, %: -2.85
- MOLECULE: "CCn1nc(C)c2nc(C(C)C)nc(NCC(C)O)c21 (configuration not stated)"
  cytotoxicity at 70.5 h, %: -6.78
- MOLECULE: "NC(=O)c1ccnc(N2CCCC(CO)(Cc3ccc(F)cc3)C2)c1 (configuration not stated)"
  cytotoxicity at 70.5 h, %: -6.25
- MOLECULE: "Cc1c(Cl)cccc1S(=O)(=O)N1CCC2(CC1)OCCS2"
  cytotoxicity at 70.5 h, %: -1.11
- MOLECULE: "Cc1cc(C)c(CNC(=O)N2CCC(N3CCNC3=O)CC2)c(=O)[nH]1"
  cytotoxicity at 70.5 h, %: -10.5
- MOLECULE: "CCc1nc(C2CCCN(c3ncc(Br)cn3)C2)no1 (configuration not stated)"
  cytotoxicity at 70.5 h, %: -14.4
- MOLECULE: "OC(c1ccccc1)c1cn(C2CCN(Cc3nccs3)CC2)nn1 (configuration not stated)"
  cytotoxicity at 70.5 h, %: -11.3
- MOLECULE: "Cc1nccn1C1CCCN(C(=O)c2ccc3c(c2)CCC3)C1 (configuration not stated)"
  cytotoxicity at 70.5 h, %: 0.881
- MOLECULE: "CC(=O)Nc1cccc2c1ccn2CC(=O)Nc1ncc[nH]1"
  cytotoxicity at 70.5 h, %: -5.41
- MOLECULE: "Cn1nc(CN2CCCC2)c2c1CN(C(=O)Nc1cccc(F)c1)CC2"
  cytotoxicity at 70.5 h, %: -7.05
- MOLECULE: "CCn1nc(C)c(CN(Cc2ccccn2)Cc2ccccc2Cl)c1C"
  cytotoxicity at 70.5 h, %: 10.9
- MOLECULE: "Cn1nc2c(cc1=O)CN(Cc1nc(C(C)(C)C)no1)CC2"
  cytotoxicity at 70.5 h, %: -5.46
- MOLECULE: "CN1C(=O)C2(CCN(Cc3cccnc3)CC2)c2cccc(F)c21"
  cytotoxicity at 70.5 h, %: -3.56
- MOLECULE: "Cc1ccc(C(NC(=O)Cc2nc3ncccn3n2)C2CC2)cc1 (configuration not stated)"
  cytotoxicity at 70.5 h, %: -11.9
- MOLECULE: "O=C(NCc1ccc(C(=O)O)o1)c1ccc(F)cc1"
  cytotoxicity at 70.5 h, %: 0.996
- MOLECULE: "CCN1CC(C(=O)NCCCc2nc(C)c(C)s2)CC1=O (configuration not stated)"
  cytotoxicity at 70.5 h, %: -9.75
- MOLECULE: "COCCC(=O)NCc1ccc(-c2ncncc2C(=O)N(C)C)cc1"
  cytotoxicity at 70.5 h, %: 6.32
- MOLECULE: "O=C(CCn1cc(Cl)cn1)N1CCC2(CC1)OCCCC2O (configuration not stated)"
  cytotoxicity at 70.5 h, %: 12
- MOLECULE: "CCn1cnnc1C1CCN(C(=O)c2ccc(C(=O)OC)s2)CC1"
  cytotoxicity at 70.5 h, %: -10.6
- MOLECULE: "Cc1cc(C)n(-c2ccccc2NC(=O)NCCCN(C)S(C)(=O)=O)n1"
  cytotoxicity at 70.5 h, %: 5.58
- MOLECULE: "CCOCC(O)CN1CCN(C(=O)Cc2ccccc2Cl)CC1 (configuration not stated)"
  cytotoxicity at 70.5 h, %: -0.667
- MOLECULE: "CCc1nc(CN2CCCN(C(=O)CC(C)OC)CC2)cs1 (configuration not stated)"
  cytotoxicity at 70.5 h, %: 51.7
- MOLECULE: "Cc1n[nH]c(C)c1C1COCCN1C(=O)c1cccc(F)c1F (configuration not stated)"
  cytotoxicity at 70.5 h, %: -15.7
- MOLECULE: "CC(=O)Nc1cnc(Oc2ccccc2F)nc1"
  cytotoxicity at 70.5 h, %: -5.65
- MOLECULE: "COC(=O)Cn1c(=O)nc2n1C(=O)N(c1ccc(C)cc1)C2"
  cytotoxicity at 70.5 h, %: 13.2
- MOLECULE: "CCN(Cc1cnn(CC)c1)C(=O)Cn1c(=O)ccc2ccccc21"
  cytotoxicity at 70.5 h, %: -5.92
- MOLECULE: "Cn1ccc(C(=O)N2CCCN(CCCc3ccccc3)CC2)cc1=O"
  cytotoxicity at 70.5 h, %: -17.2
- MOLECULE: "CN(CC(=O)NC1(C)CCS(=O)(=O)C1)Cc1ccc(Br)cc1 (configuration not stated)"
  cytotoxicity at 70.5 h, %: 7.79
- MOLECULE: "COc1nc2ccn(CCc3cnccn3)c(=O)c2cc1C#N"
  cytotoxicity at 70.5 h, %: 40.2
- MOLECULE: "CN(Cc1cccc2cnccc12)C(=O)CCc1n[nH]c2c1CCCC2"
  cytotoxicity at 70.5 h, %: -9.31
- MOLECULE: "CC1(C)CC(CC(=O)N2CC(C)(C)[C@@](C)(O)C2)CC(C)(C)N1"
  cytotoxicity at 70.5 h, %: 13
- MOLECULE: "CCn1nccc1CNC(=O)C1CC1"
  cytotoxicity at 70.5 h, %: -10.1
- MOLECULE: "O=C(CC1CC1)N1CCC2(CCCN(CCOc3ccccc3)C2)C1 (configuration not stated)"
  cytotoxicity at 70.5 h, %: -11.8
- MOLECULE: "Cc1cc(NC(=O)c2ccc(F)cc2Br)n(C)n1"
  cytotoxicity at 70.5 h, %: -4.35
- MOLECULE: "CCCN(CC)C(=O)c1ncn2c1CN(C)S(=O)(=O)c1ccccc1-2"
  cytotoxicity at 70.5 h, %: 1.29
- MOLECULE: "CCCS(=O)(=O)N1Cc2nccn2CC(Cn2cncn2)C1 (configuration not stated)"
  cytotoxicity at 70.5 h, %: 20.3
- MOLECULE: "COC(=O)N1CC(C)=C(C)CN1C(=O)Nc1ccc(Cl)c(Cl)c1"
  cytotoxicity at 70.5 h, %: 4.31
- MOLECULE: "CCN(CC)CC[C@H]1CN(C(=O)C(C)(C)C)CC[C@H]1CC(=O)O"
  cytotoxicity at 70.5 h, %: -8.97
- MOLECULE: "c1ccc(Cc2noc(CN3CCCCC3C3OCCO3)n2)cc1 (configuration not stated)"
  cytotoxicity at 70.5 h, %: -2.71
- MOLECULE: "CC(C)(C)c1cc(NC(=O)CN2CCn3c(nnc3C3CC3)C2)on1"
  cytotoxicity at 70.5 h, %: 3.06
- MOLECULE: "CS(=O)(=O)NCCCNCc1cc(F)ccc1Br"
  cytotoxicity at 70.5 h, %: -2.01
- MOLECULE: "COc1ccc(CN2CC[C@H]3[C@H](CO[C@H]3CNC(=O)N(C)C)C2)cc1"
  cytotoxicity at 70.5 h, %: -0.91
- MOLECULE: "CCOC(=O)CCNC(=O)N1CCCC(CNC(=O)c2cccs2)C1 (configuration not stated)"
  cytotoxicity at 70.5 h, %: -6.29
- MOLECULE: "CC(C)c1nc(S(=O)(=O)Nc2ccnn2C2CCCC2)c[nH]1"
  cytotoxicity at 70.5 h, %: 1.34
- MOLECULE: "O=S1(=O)CCN(CCCc2ccc(Cl)cc2)CC1"
  cytotoxicity at 70.5 h, %: -6.76
